recorded-endpoint: melting point

Check out these entries, answers already filled in.
Sure, the documented melting point for CCC(C)(C)NC(=O)NC(C)C#N (stereo unspecified) is 129 to 130 °C

Sure, the documented melting point for CCOC(=O)COc1ccc(NC(=O)NC(=O)c2ccc(C(=N)N)cc2)cc1 is 198 to 200 °C

Sure, the documented melting point for Cn1ccc2cc(NC(=O)c3cc4cc(F)ccc4n3Cc3cccc(F)c3)ccc21 is 187 to 189 °C

Sure, the documented melting point for CCc1nnc2c(Cl)nc3ccc(Cl)cc3n12 is > 250 °C

---
Sure, the documented melting point for Cc1ccc2nc(-c3ccc(C#N)cc3)c(CNC(=O)CC(C)C)n2c1 is 231 to 233 °C

Sure, the documented melting point for Cc1cc2c(cc1C1=NNC(=O)CC1)N(C)C(=O)C(C)O2 (stereo unspecified) is 210 to 212 °C

Sure, the documented melting point for CCCCOc1nc(N)c2[nH]c(=O)n(CCCCN(CC(C)(C)CN(C)C)S(=O)(=O)c3cccc(CC(=O)O)c3)c2n1 is 175 to 176 °C

Sure, the documented melting point for O=C(/C=C/c1cccc(F)c1)NC1CC1 is 90 to 91 °C

Sure, the documented melting point for CNc1cc(Cl)cc(Cl)c1[N+](=O)[O-] is 120 °C

Sure, the documented melting point for CC(C)(C)OC(=O)NC[C@H]1CC[C@H](COS(C)(=O)=O)CC1 is 105 to 107 °C

Sure, the documented melting point for CC(C)(C)OC(=O)NCCCCNc1c([N+](=O)[O-])cnc2cccnc12 is 137 to 138 °C

Sure, the documented melting point for Fc1ccccc1[C@@H]1Cc2cnc(Nc3cccc(CCN4CCNCC4)c3)nc2-c2ccccc21 is 165 to 167 °C

Sure, the documented melting point for CC(C)c1ccc2c(c1)[C@H]1Cc3ccccc3[C@H]1N2 (relative stereo) is 104 °C
